Origin of values: PubChem BioAssay AID1919016

# System: NCI-H196 complex spheroid growth, percent test/control
# experiment summary: Anticancer human tumor NCI-H196 cell line growth inhibition [AhR];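 further: seven days of drug exposure starting three days after plating; 100% = DMSO vehicle control wells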
# condition label: second compound 3.16 µM; first compound 0.0949 µM; hits give low values
reported metric: viability, T/C (%)
State the answer as a number, implicitly in %.

Guide cases for viability, T/C, answers given:
{"compound": "O=C(C=Cn1cnc(-c2cc(C(F)(F)F)cc(C(F)(F)F)c2)n1)NNc1cnccn1 + Cc1ccccc1N=Nc1ccc(NC(=O)c2ccnn2C)c(C)c1", "viability, T/C / %": 9.86}
{"compound": "CCN(c1cc(-c2ccc(CN3CCOCC3)cc2)cc(C(=O)NCc2c(C)cc(C)[nH]c2=O)c1C)C1CCOCC1 + CC(CO)NC(=O)c1cc(-c2ccc(Cl)cc2)nn(-c2cnn(C)c2)c1=O", "viability, T/C / %": 121}

// below: viability, T/C requested for another compound
Query string: Short answer please: viability, T/C, NCI-H196 complex spheroid growth, percent test/control, entry CCc1c2c(nc3ccc(O)cc13)-c1cc3c(c(=O)n1C2)COC(=O)[C@]3(O)CC + Cc1cncc(-c2nc(NCCc3c[nH]c4ccccc34)c3ncn(C(C)C)c3n2)c1
Result string: 86.7

---

# System: NCI-H196 complex spheroid growth, percent test/control
# experiment summary: Anticancer human tumor NCI-H196 cell line growth inhibition [AhR];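 further: seven days of drug exposure starting three days after plating; 100% = DMSO vehicle control wells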
# condition label: second compound 3.16 µM; first compound 0.00949 µM; hits give low values
# Text: Multicellular complex tumor spheroid response to aryl hydrocarbon receptor antagonists in combination with a variety of drugs and investigational agents in selected tumor cell lines […] Compounds. […] If the clinical Cmax for an agent had not been determined, the highest concentration tested was 10 microM (Table 1). […]
Below: a set of entries, each annotated with reported viability, T/C.
State the answer as a number, implicitly in %.

Guide cases for viability, T/C, answers given:
{"compound": "Nc1ncn(C2CC(O)C(CO)S2)c(=O)n1 (configuration not stated) + Cc1ccccc1N=Nc1ccc(NC(=O)c2ccnn2C)c(C)c1", "viability, T/C [%]": 100}
{"compound": "Nc1ncn(C2CC(O)C(CO)S2)c(=O)n1 (configuration not stated) + CC(CO)NC(=O)c1cc(-c2ccc(Cl)cc2)nn(-c2cnn(C)c2)c1=O", "viability, T/C [%]": 110}
{"compound": "O=C(C=Cn1cnc(-c2cc(C(F)(F)F)cc(C(F)(F)F)c2)n1)NNc1cnccn1 + Cc1ccccc1N=Nc1ccc(NC(=O)c2ccnn2C)c(C)c1", "viability, T/C [%]": 68.4}
{"compound": "CCc1c2c(nc3ccc(O)cc13)-c1cc3c(c(=O)n1C2)COC(=O)[C@]3(O)CC + Cc1cncc(-c2nc(NCCc3c[nH]c4ccccc34)c3ncn(C(C)C)c3n2)c1", "viability, T/C [%]": 92.4}
{"compound": "CCN(c1cc(-c2ccc(CN3CCOCC3)cc2)cc(C(=O)NCc2c(C)cc(C)[nH]c2=O)c1C)C1CCOCC1 + Cc1ccccc1N=Nc1ccc(NC(=O)c2ccnn2C)c(C)c1", "viability, T/C [%]": 93}
{"compound": "CC(C)CC(NC(=O)C(Cc1ccccc1)NC(=O)c1cnccn1)B(O)O (configuration not stated) + CC(CO)NC(=O)c1cc(-c2ccc(Cl)cc2)nn(-c2cnn(C)c2)c1=O", "viability, T/C [%]": 54.9}
{"compound": "CCc1c2c(nc3ccc(O)cc13)-c1cc3c(c(=O)n1C2)COC(=O)[C@]3(O)CC + Cc1ccccc1N=Nc1ccc(NC(=O)c2ccnn2C)c(C)c1", "viability, T/C [%]": 103}
{"compound": "CC(C)CC(NC(=O)C(Cc1ccccc1)NC(=O)c1cnccn1)B(O)O (configuration not stated) + Cc1cncc(-c2nc(NCCc3c[nH]c4ccccc34)c3ncn(C(C)C)c3n2)c1", "viability, T/C [%]": 51.9}
{"compound": "CCc1c2c(nc3ccc(O)cc13)-c1cc3c(c(=O)n1C2)COC(=O)[C@]3(O)CC + CC(CO)NC(=O)c1cc(-c2ccc(Cl)cc2)nn(-c2cnn(C)c2)c1=O", "viability, T/C [%]": 105}
{"compound": "O=C(C=Cn1cnc(-c2cc(C(F)(F)F)cc(C(F)(F)F)c2)n1)NNc1cnccn1 + Cc1cncc(-c2nc(NCCc3c[nH]c4ccccc34)c3ncn(C(C)C)c3n2)c1", "viability, T/C [%]": 80}

Query string: # input compound: O=C(C=Cn1cnc(-c2cc(C(F)(F)F)cc(C(F)(F)F)c2)n1)NNc1cnccn1 + CC(CO)NC(=O)c1cc(-c2ccc(Cl)cc2)nn(-c2cnn(C)c2)c1=O ; wanted: its viability, T/C
Result string: 75.9

Query string: Try this compound too: Nc1ncn(C2CC(O)C(CO)S2)c(=O)n1 (configuration not stated) + Cc1cncc(-c2nc(NCCc3c[nH]c4ccccc34)c3ncn(C(C)C)c3n2)c1
Result string: 115
